Examples of compounds with documented Bliss excess follow.
Tested on: NCI-H2342 (Lung Adenocarcinoma)
assay.explanation: Bliss excess, mean over the matrix (fraction); higher = more synergy

>  <compound>
C[C@@H](Oc1cc(-c2cnn(C3CCNCC3)c2)cnc1N)c1c(Cl)ccc(F)c1Cl [Crizotinib] + CC1=C(C(=CC=C1)Cl)NC(=O)C2=CN=C(S2)NC3=CC(=NC(=N3)C)N4CCN(CC4)CCO [Dasatinib] (first compound max 10 µM, 7x7, partner max 2 µM)

>  <Bliss excess>
-0.0108

$$$$
>  <compound>
C[C@@H](Nc1cc(F)cc(F)c1)c1cc(C(=O)N(C)C)cc2c(=O)cc(N3CCOCC3)oc12 [AZD8186] + C1CN(CCC1(C(=O)N[C@@H](CCO)C2=CC=C(C=C2)Cl)N)C3=NC=NC4=C3C=CN4 [AZD5363] (first compound max 10 µM, 7x7, partner max 10 µM)

>  <Bliss excess>
0.0003

$$$$
>  <compound>
Cc1cc2ncnn2cc1Nc1ncc2c(n1)n(C1CCOCC1)c(=O)n2C [AZD7648] + C=CCn1c(=O)c2cnc(Nc3ccc(N4CCN(C)CC4)cc3)nc2n1-c1cccc(C(C)(C)O)n1 [AZD1775] (first compound max 10 µM, partner max 1 µM)

>  <Bliss excess>
-0.0023

$$$$
>  <compound>
Cn1cnc2c(F)c(Nc3ccc(Br)cc3Cl)c(C(=O)NOCCO)cc21 [Selumetinib] + C[C@@H]1COCCN1C2=NC(=NC(=C2)C3(CC3)[S@](=N)(=O)C)C4=C5C=CNC5=NC=C4 [AZD6738] (first compound max 10 µM, 7x7, partner max 10 µM)

>  <Bliss excess>
-0.0577

$$$$

###

Examples of compounds with documented Bliss excess follow.
Tested on: SK-PN-DW (Other Solid Carcinomas)
assay.explanation: Bliss excess, mean over the matrix (fraction); higher = more synergy
recorded.metric: Bliss excess

>  <compound>
Cc1c2c(nn1C)CSCc1cc(n(C)n1)CSc1cc(c3ccccc3c1)OCCCc1c(C(=O)O)n(C)c3c-2c(Cl)ccc13 [AZD5991] + CS(=O)(=O)CCNCc1ccc(-c2ccc3ncnc(Nc4ccc(OCc5cccc(F)c5)c(Cl)c4)c3c2)o1 [Lapatinib] (first compound max 1 µM, 7x7, partner max 10 µM)

>  <observed.result>
0.0081

$$$$
>  <compound>
Cc1cc2ncnn2cc1Nc1ncc2c(n1)n(C1CCOCC1)c(=O)n2C [AZD7648] + COc1cc([C@@H]2c3cc4c(cc3[C@@H](O[C@@H]3O[C@@H]5CO[C@@H](C)O[C@H]5[C@H](O)[C@H]3O)[C@H]3COC(=O)[C@H]23)OCO4)cc(OC)c1O [Etoposide] (first compound max 10 µM, 7x7, partner max 10 µM)

>  <observed.result>
0.184

$$$$
>  <compound>
CN(CCO)CC[C@H](CSc1ccccc1)Nc1ccc(S(=O)(=O)NC(=O)c2ccc(N3CCC([C@@H](O)c4ccccc4-c4ccc(Cl)cc4)CC3)cc2)cc1S(=O)(=O)C(F)(F)F [AZD4320] + Nc1ccn([C@@H]2O[C@H](CO)[C@@H](O)C2(F)F)c(=O)n1 [Gemcitabine] (first compound max 1 µM, 7x7, partner max 0.3 µM)

>  <observed.result>
-0.0422

$$$$

###

System: NCI-H23 (Lung Adenocarcinoma)
assay.explanation: combination Emax (second highest fraction inhibited in the dose matrix, 72 h); higher = more inhibition; extreme values may be limits of the assay
Rule: combination Emax of 0.5 or more gives 1 (yes); anything lower gives 0 (no).

>  <compound>
C[C@@H](c1ccc2nccn2c1)n1nnc2ncc(-c3cnn(C)c3)nc21 [Savolitinib] + Cc1c2c(nn1C)CSCc1cc(n(C)n1)CSc1cc(c3ccccc3c1)OCCCc1c(C(=O)O)n(C)c3c-2c(Cl)ccc13 [AZD5991] (first compound max 1 µM, 7x7, partner max 1 µM)

>  <assigned.label>
1 (yes)

$$$$
>  <compound>
Cc1nc(Nc2ncc(C(=O)Nc3c(C)cccc3Cl)s2)cc(N2CCN(CCO)CC2)n1 [Dasatinib] + CC(=O)Nc1cccc(-n2c(=O)n(C3CC3)c(=O)c3c(Nc4ccc(I)cc4F)n(C)c(=O)c(C)c32)c1 [Trametinib] (first compound max 2 µM, 7x7, partner max 1 µM)

>  <assigned.label>
1 (yes)

$$$$
>  <compound>
CC1(C)CCC(CN2CCN(c3ccc(C(=O)NS(=O)(=O)c4ccc(NCC5CCOCC5)c([N+](=O)[O-])c4)c(Oc4cnc5[nH]ccc5c4)c3)CC2)=C(c2ccc(Cl)cc2)C1 [Venetoclax] + C=CCn1c(=O)c2cnc(Nc3ccc(N4CCN(C)CC4)cc3)nc2n1-c1cccc(C(C)(C)O)n1 [AZD1775] (first compound max 1 µM, partner max 1 µM)

>  <assigned.label>
1 (yes)

$$$$
>  <compound>
CC(=O)c1c(C)c2cnc(Nc3ccc(N4CCNCC4)cn3)nc2n(C2CCCC2)c1=O [Palbociclib] + Cn1cnc2c(F)c(Nc3ccc(Br)cc3Cl)c(C(=O)NOCCO)cc21 [Selumetinib] (first compound max 10 µM, 7x7, partner max 10 µM)

>  <assigned.label>
0 (no)

$$$$
>  <compound>
CC(=O)c1c(C)c2cnc(Nc3ccc(N4CCNCC4)cn3)nc2n(C2CCCC2)c1=O [Palbociclib] + CN(CC[C@H](CSC1=CC=CC=C1)NC2=C(C=C(C=C2)S(=O)(=O)NC(=O)C3=CC=C(C=C3)N4CCC(CC4)[C@H](C5=CC=CC=C5C6=CC=C(C=C6)Cl)O)S(=O)(=O)C(F)(F)F)CCO [AZD4320] (first compound max 10 µM, 7x7, partner max 1 µM)

>  <assigned.label>
0 (no)

$$$$
>  <compound>
CC1(C)CCC(CN2CCN(c3ccc(C(=O)NS(=O)(=O)c4ccc(NCC5CCOCC5)c([N+](=O)[O-])c4)c(Oc4cnc5[nH]ccc5c4)c3)CC2)=C(c2ccc(Cl)cc2)C1 [Venetoclax] + COc1cc(Nc2ncc3c(n2)-c2ccc(Cl)cc2C(c2c(F)cccc2OC)=NC3)ccc1C(=O)O [Alisertib] (first compound max 1 µM, 7x7, partner max 10 µM)

>  <assigned.label>
0 (no)

$$$$

###

Test system: SU-DHL-10 (B-Cell Non-Hodgkin's Lymphoma)
assay.explanation: combination Emax (second highest fraction inhibited in the dose matrix, 72 h); higher = more inhibition; extreme values may be limits of the assay
recorded.metric: combination Emax

>  <molecule>
C[C@@H](c1ccc2nccn2c1)n1nnc2ncc(-c3cnn(C)c3)nc21 [Savolitinib] + CC1(C)CCC(CN2CCN(c3ccc(C(=O)NS(=O)(=O)c4ccc(NCC5CCOCC5)c([N+](=O)[O-])c4)c(Oc4cnc5[nH]ccc5c4)c3)CC2)=C(c2ccc(Cl)cc2)C1 [Venetoclax] (first compound max 1 µM, 7x7, partner max 1 µM)

>  <observed.result>
0.0782

$$$$
>  <molecule>
NC1(C(=O)N[C@@H](CCO)c2ccc(Cl)cc2)CCN(c2ncnc3[nH]ccc23)CC1 [Capivasertib] + COc1nnc2ccc(N3CCC(c4ccc(OCCN5CCN(C)C(=O)[C@H]5C)cc4)CC3)nn12 [AZD5153] (first compound max 10 µM, 7x7, partner max 1 µM)

>  <observed.result>
1

$$$$

###

Test system: TE-8 (Esophageal Squamous Cell Carcinoma)
assay.explanation: Bliss excess, mean over the matrix (fraction); higher = more synergy

>  <molecule>
Cc1cc2ncnn2cc1Nc1ncc2c(n1)n(C1CCOCC1)c(=O)n2C [AZD7648] + C[C@@H]1COCCN1C2=NC(=NC(=C2)C3(CC3)[S@](=N)(=O)C)C4=C5C=CNC5=NC=C4 [AZD6738] (first compound max 10 µM, 7x7, partner max 10 µM)

>  <Bliss excess>
-0.0122

$$$$
>  <molecule>
CN(CCO)CC[C@H](CSc1ccccc1)Nc1ccc(S(=O)(=O)NC(=O)c2ccc(N3CCC([C@@H](O)c4ccccc4-c4ccc(Cl)cc4)CC3)cc2)cc1S(=O)(=O)C(F)(F)F [AZD4320] + C[C@@H]1COCCN1C2=NC(=NC(=C2)C3(CC3)[S@](=N)(=O)C)C4=C5C=CNC5=NC=C4 [AZD6738] (first compound max 1 µM, 7x7, partner max 10 µM)

>  <Bliss excess>
-0.0357

$$$$
>  <molecule>
C[C@@H]1COCCN1c1cc(C2([S@](C)(=N)=O)CC2)nc(-c2ccnc3[nH]ccc23)n1 [AZD6738] + O=C(c1cc(Cc2n[nH]c(=O)c3ccccc23)ccc1F)N1CCN(C(=O)C2CC2)CC1 [Olaparib] (first compound max 10 µM, 7x7, partner max 10 µM)

>  <Bliss excess>
-0.0218

$$$$

###

System: OPM-2 (Plasma Cell Myeloma)
assay.explanation: combination Emax (second highest fraction inhibited in the dose matrix, 72 h); higher = more inhibition; extreme values may be limits of the assay
Examples of molecules with documented combination Emax follow.

>  <molecule>
Cc1c2c(nn1C)CSCc1cc(n(C)n1)CSc1cc(c3ccccc3c1)OCCCc1c(C(=O)O)n(C)c3c-2c(Cl)ccc13 [AZD5991] + C[C@@H]1COCCN1C2=NC(=NC(=C2)C3(CC3)[S@](=N)(=O)C)C4=C5C=CNC5=NC=C4 [AZD6738] (first compound max 1 µM, 7x7, partner max 10 µM)

>  <combination Emax>
1

$$$$
>  <molecule>
O=C(c1cc(Cc2n[nH]c(=O)c3ccccc23)ccc1F)N1CCN(C(=O)C2CC2)CC1 [Olaparib] + CC1(C)CCC(CN2CCN(c3ccc(C(=O)NS(=O)(=O)c4ccc(NCC5CCOCC5)c([N+](=O)[O-])c4)c(Oc4cnc5[nH]ccc5c4)c3)CC2)=C(c2ccc(Cl)cc2)C1 [Venetoclax] (first compound max 10 µM, 7x7, partner max 1 µM)

>  <combination Emax>
0.256

$$$$
>  <molecule>
C=CCn1c(=O)c2cnc(Nc3ccc(N4CCN(C)CC4)cc3)nc2n1-c1cccc(C(C)(C)O)n1 [AZD1775] + C[C@@H]1COCCN1C2=NC(=NC(=C2)C3(CC3)[S@](=N)(=O)C)C4=C5C=CNC5=NC=C4 [AZD6738] (first compound max 1 µM, partner max 10 µM)

>  <combination Emax>
0.893

$$$$
>  <molecule>
NC1(C(=O)N[C@@H](CCO)c2ccc(Cl)cc2)CCN(c2ncnc3[nH]ccc23)CC1 [Capivasertib] + CC(C)n1c(=O)n(C)c2cnc3cc(F)c(-c4ccc(OCCCN5CCCCC5)nc4)cc3c21 [AZD1390] (first compound max 10 µM, 7x7, partner max 0.3 µM)

>  <combination Emax>
0.931

$$$$
>  <molecule>
CN(C)CCCOc1ccc(-c2ccc3ncc4c(c3c2)n(C2CCOCC2)c(=O)n4C)cn1 [AZD0156] + CCN(CCO)CCCOc1ccc2c(Nc3cc(CC(=O)Nc4cccc(F)c4)[nH]n3)ncnc2c1 [AZD2811] (first compound max 1 µM, 7x7, partner max 1 µM)

>  <combination Emax>
0.436

$$$$
>  <molecule>
Cc1c2c(nn1C)CSCc1cc(n(C)n1)CSc1cc(c3ccccc3c1)OCCCc1c(C(=O)O)n(C)c3c-2c(Cl)ccc13 [AZD5991] + Nc1ccn([C@@H]2O[C@H](CO)[C@@H](O)C2(F)F)c(=O)n1 [Gemcitabine] (first compound max 1 µM, 7x7, partner max 0.3 µM)

>  <combination Emax>
1

$$$$
>  <molecule>
Cc1c2c(nn1C)CSCc1cc(n(C)n1)CSc1cc(c3ccccc3c1)OCCCc1c(C(=O)O)n(C)c3c-2c(Cl)ccc13 [AZD5991] + CC(=O)O[C@H]1C(=O)[C@@]2(C)[C@H]([C@H](OC(=O)c3ccccc3)[C@]3(O)C[C@H](OC(=O)[C@H](O)[C@@H](NC(=O)c4ccccc4)c4ccccc4)C(C)=C1C3(C)C)[C@]1(OC(C)=O)CO[C@@H]1C[C@@H]2O [Paclitaxel] (first compound max 1 µM, 7x7, partner max 3 µM)

>  <combination Emax>
1

$$$$
